Assay: Repeated-dose
Type: in vivo, male CD-1 mice
Conditions: male, CD-1, mouse, plasma, po, 50 mg/kg
MEASURED_PROPERTY: Tmax at 1 day

>>> endpoint_result("COc1ccc2c(c1OC)C(=O)O[C@@H]2[C@H]1c2c(cc3c(c2OC)OCO3)CCN1C [Nos, Noscapine]")
"10.2 min"

* * *

Experiment: Repeated-dose
Format: in vivo, male CD-1 mice
Details: male, CD-1, mouse, plasma, po, 50 mg/kg, AUClast, Day 1; noscapine; oral gavage Nos 50 mg/kg bw, Cap/Pip 5 mg/kg bw; CD-1 mice
MEASURED_PROPERTY: AUC(0-t)

>>> endpoint_result("COc1ccc2c(c1OC)C(=O)O[C@@H]2[C@H]1c2c(cc3c(c2OC)OCO3)CCN1C")
"1020 ng·h/mL"

* * *

Molecular target: CYP 1A2 (Homo sapiens)
Assay: CYP inhibition assay in human liver microsomes
Format: in vitro ADME
Conditions: IC50 CYP 1A2, human liver microsomes; duplicate incubations, both values printed
MEASURED_PROPERTY: IC50

>>> endpoint_result("COc1ccc2c(c1OC)C(=O)O[C@@H]2[C@H]1c2c(cc3c(c2OC)OCO3)CCN1C [Nos, Noscapine]")
"> 100 µM"

* * *

Molecular target: CYP 2C9 (Homo sapiens, UniProt P11712)
Sequence (P11712 whole entry): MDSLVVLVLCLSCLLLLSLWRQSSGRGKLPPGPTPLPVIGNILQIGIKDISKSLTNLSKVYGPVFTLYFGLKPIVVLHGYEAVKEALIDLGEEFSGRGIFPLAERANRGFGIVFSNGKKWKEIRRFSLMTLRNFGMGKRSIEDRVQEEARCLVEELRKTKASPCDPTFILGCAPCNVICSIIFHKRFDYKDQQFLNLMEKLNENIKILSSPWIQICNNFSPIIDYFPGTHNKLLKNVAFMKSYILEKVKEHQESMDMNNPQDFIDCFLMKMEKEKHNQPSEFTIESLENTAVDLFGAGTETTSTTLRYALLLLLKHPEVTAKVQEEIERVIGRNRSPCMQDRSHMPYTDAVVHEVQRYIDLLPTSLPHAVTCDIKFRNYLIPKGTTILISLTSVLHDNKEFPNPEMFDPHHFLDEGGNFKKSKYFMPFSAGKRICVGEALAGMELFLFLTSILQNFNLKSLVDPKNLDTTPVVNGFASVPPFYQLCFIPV
Experiment: CYP inhibition assay in human liver microsomes
Assay type: in vitro ADME
Conditions: mean IC50 CYP2C9, mean value given in text; HLM
MEASURED_PROPERTY: IC50 (µM)

>>> endpoint_result("COc1cc(CNC(=O)CCCC/C=C/C(C)C)ccc1O")
4.1

* * *

Target: CYP3A4 (Homo sapiens, UniProt P08684)
Sequence (P08684 2-503 limits assumed): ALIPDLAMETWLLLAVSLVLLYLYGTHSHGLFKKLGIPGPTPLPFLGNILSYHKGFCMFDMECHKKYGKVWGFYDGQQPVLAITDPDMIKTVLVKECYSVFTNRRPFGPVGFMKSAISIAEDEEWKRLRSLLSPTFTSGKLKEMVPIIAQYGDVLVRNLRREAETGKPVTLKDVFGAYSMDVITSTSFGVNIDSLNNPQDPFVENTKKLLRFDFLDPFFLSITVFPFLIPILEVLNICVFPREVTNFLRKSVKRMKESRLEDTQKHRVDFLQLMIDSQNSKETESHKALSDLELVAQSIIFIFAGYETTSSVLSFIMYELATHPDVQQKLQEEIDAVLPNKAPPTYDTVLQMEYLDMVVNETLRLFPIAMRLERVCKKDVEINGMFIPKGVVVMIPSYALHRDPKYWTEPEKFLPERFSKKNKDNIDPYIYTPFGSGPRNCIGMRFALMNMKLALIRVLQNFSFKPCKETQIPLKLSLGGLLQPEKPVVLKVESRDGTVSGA
Experiment: CYP inhibition assay in human liver microsomes
Format: in vitro ADME
Settings: mean IC50 CYP3A4, testosterone as substrate; mean value given in text; HLM
MEASURED_PROPERTY: IC50 (µM)

>>> endpoint_result("COc1cc(CNC(=O)CCCC/C=C/C(C)C)ccc1O")
9.7

* * *

Molecular target: UniProtKB P08684
Experiment: CYP inhibition assay in human liver microsomes
Format: in vitro ADME
Conditions: mean IC50 CYP3A4, midazolam as substrate; mean value given in text; HLM
MEASURED_PROPERTY: IC50 (µM)

>>> endpoint_result("COc1cc(CNC(=O)CCCC/C=C/C(C)C)ccc1O [Cap, capsaicin]")
16

* * *

Assay: Single-dose oral PK screening of Nos with dietary ingredients
Assay type: in vivo, male CD-1 mice
Conditions: male, CD-1, mouse, plasma, po, 50 mg/kg
MEASURED_PROPERTY: Tmax

>>> endpoint_result("COc1ccc2c(c1OC)C(=O)O[C@@H]2[C@H]1c2c(cc3c(c2OC)OCO3)CCN1C")
"4.8 min"

* * *

Experiment: Single-dose oral PK screening of Nos with dietary ingredients
Type: in vivo, male CD-1 mice
Conditions: male, CD-1, mouse, plasma, po, 50 mg/kg
MEASURED_PROPERTY: AUC(0-t) (ng·h/mL)

>>> endpoint_result("COc1ccc2c(c1OC)C(=O)O[C@@H]2[C@H]1c2c(cc3c(c2OC)OCO3)CCN1C [Nos, Noscapine]")
1920

* * *

Molecular target: CYP 1A2 (Homo sapiens, UniProt P05177)
Sequence (P05177 whole entry): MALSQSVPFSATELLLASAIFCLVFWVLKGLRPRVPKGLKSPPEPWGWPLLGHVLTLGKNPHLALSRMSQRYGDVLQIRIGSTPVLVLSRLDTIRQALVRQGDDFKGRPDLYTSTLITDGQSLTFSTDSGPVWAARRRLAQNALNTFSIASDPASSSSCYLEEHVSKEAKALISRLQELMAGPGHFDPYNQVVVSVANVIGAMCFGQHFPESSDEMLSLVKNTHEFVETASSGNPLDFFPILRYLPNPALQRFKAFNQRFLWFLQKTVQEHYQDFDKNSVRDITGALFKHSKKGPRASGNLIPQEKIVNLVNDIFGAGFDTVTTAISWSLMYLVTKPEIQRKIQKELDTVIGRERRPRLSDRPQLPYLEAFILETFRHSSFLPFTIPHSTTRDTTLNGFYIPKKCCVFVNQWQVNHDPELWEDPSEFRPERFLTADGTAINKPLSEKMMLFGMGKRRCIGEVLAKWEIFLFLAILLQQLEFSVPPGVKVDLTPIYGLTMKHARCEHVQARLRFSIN
Experiment: CYP inhibition assay in human liver microsomes
Type: in vitro ADME
Conditions: mean IC50 CYP1A2, mean value given in text; HLM
pIC50: −log10 of the molar value.
MEASURED_PROPERTY: pIC50

>>> endpoint_result("COc1cc(CNC(=O)CCCC/C=C/C(C)C)ccc1O [Cap, capsaicin]")
5.48
